From: patent US10144715B2

Molecular target: Gal4 DNA binding domain fused to the LBD of LXRα in HEK293 cells (Homo sapiens (Human))
Sequence (Q13133 209-447): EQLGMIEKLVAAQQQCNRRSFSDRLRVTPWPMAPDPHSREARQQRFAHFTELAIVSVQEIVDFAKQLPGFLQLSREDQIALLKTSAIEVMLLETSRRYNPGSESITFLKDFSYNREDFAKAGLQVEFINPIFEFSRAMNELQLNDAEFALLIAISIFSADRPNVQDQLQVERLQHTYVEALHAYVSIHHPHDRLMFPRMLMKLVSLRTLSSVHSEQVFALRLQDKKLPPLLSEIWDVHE
Experiment: LXR luciferase transcriptional reporter gene assay, antagonist mode (200 nM T0901317), LXRα
Assay type: cell-based
Details: read-out: Cell LXRα IC50
READOUT: IC50 (µM)
Report the value in µM with no unit label.

molecule="CS(=O)(=O)c1cccc(N2CCN(C[C@H]3CC[C@@H](C(F)(F)F)CC3)[C@@H](c3ccccc3)C2)c1 (single isomer, unassigned)" system="Gal4 DNA binding domain fused to the LBD of LXRα in HEK293 cells (Homo sapiens (Human))" measured_result=6.71

// switching to the query molecule
IC50 reading for CS(=O)(=O)c1cccc(N2CCN(CC3CCC(O)(C(F)(F)F)CC3)[C@@H](c3ccccc3)C2)c1 (stereo partly shown) : 3.95

###

Listed compounds paired with reported Ki
Target: LXR β LBD protein (Homo sapiens (Human), UniProt P55055)
Assay: biochemical
Type: binding
# number only, unit nM dropped from output

compound="C[C@@](O)(c1ccc(CN2CCN(c3cccc(S(C)(=O)=O)c3)C[C@H]2c2ccccc2)cc1)C(F)(F)F (single isomer, unassigned)" measured_result=216

Query CS(=O)(=O)c1cccc(N2CCN(C[C@@H]3CC[C@@H](C(F)(F)F)OC3)[C@@H](c3ccc(F)cc3)C2)c1 (single isomer, unassigned) yields Ki of 214

###

Item-by-item account of Cell LXRβ efficacy
Target: Gal4 DNA binding domain fused to the LBD of LXRβ in HEK293 cells (Homo sapiens (Human))
Sequence (P55055 222-460 limits assumed): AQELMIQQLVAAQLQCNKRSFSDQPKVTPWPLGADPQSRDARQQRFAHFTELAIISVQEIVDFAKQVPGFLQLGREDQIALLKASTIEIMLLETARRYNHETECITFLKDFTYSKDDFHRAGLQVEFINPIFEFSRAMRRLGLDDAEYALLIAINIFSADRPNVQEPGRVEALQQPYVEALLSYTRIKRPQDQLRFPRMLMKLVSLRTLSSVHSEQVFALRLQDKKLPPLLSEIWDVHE
Experiment: cell-based
Assay type: cell-based
Settings: antagonist mode, 200 nM T0901317, HEK293 reporter gene assay

compound=CC(C)[C@@H]1CN(c2ccc(F)c(S(C)(=O)=O)c2)CCN1c1ncc(C(=O)N2CCOCC2)c(C(F)(F)F)n1 measured_result="538 (91) %"
compound="CC(C)[C@H]1CC[C@H](CN2CCN(c3cccc(S(C)(=O)=O)c3)C[C@@H]2c2ccccc2)CC1 (single isomer, unassigned)" measured_result=60%
compound=CC(C)[C@@H]1CN(c2ccc(F)c(S(C)(=O)=O)c2)CCN1c1ncc(CN2CCOCC2)c(C(F)(F)F)n1 measured_result="221 (105) %"

Observed Cell LXRβ efficacy, Gal4 DNA binding domain fused to the LBD of LXRβ in HEK293 cells (Homo sapiens (Human)), CS(=O)(=O)c1cccc(N2CCN(C[C@H]3CC[C@]4(CC3)CC4(F)F)[C@@H](c3ccccc3)C2)c1 (single isomer, unassigned) : 54%

Summary line: CC(C)[C@@H]1CN(c2cc(F)c(CO)c(S(C)(=O)=O)c2)CCN1c1ncc(CO)c(C(F)(F)F)n1 , Gal4 DNA binding domain fused to the LBD of LXRβ in HEK293 cells (Homo sapiens (Human)), reported Cell LXRβ efficacy = 1355 (65) %

Form field, Cell LXRβ efficacy with Gal4 DNA binding domain fused to the LBD of LXRβ in HEK293 cells (Homo sapiens (Human)), item CC(C)[C@@H]1CN(c2ccc(F)c(S(C)(=O)=O)c2)CCN1c1ncc(C(=O)N(C)CCC(C)(C)O)c(C(F)(F)F)n1 : 684 (93) %

###

Target: Gal4 DNA binding domain fused to the LBD of LXRβ in HEK293 cells (Homo sapiens (Human))
Assay: cell-based
Conditions: Biological Test Example 2, agonist mode
Listed compounds paired with reported Cell LXRβ efficacy

compound="CO[C@H]1CC[C@H](CN2CCN(c3ccc(CO)c(S(C)(=O)=O)c3)C[C@@H]2C(C)C)CC1 (single isomer, unassigned) [51-6]" measured_result=45%
compound="CS(=O)(=O)c1cccc(N2CCN(CC3(F)CCN(CC(F)(F)F)CC3)[C@@H](c3ccccc3)C2)c1 (single isomer, unassigned) [48-53]" measured_result="711 (20) %"

Now consider a different compound.
Cell LXRβ efficacy in this record for CS(=O)(=O)c1cccc(N2CCN(C[C@@H]3CCC(C(F)(F)F)OC3)[C@@H](c3ccc(F)cc3)C2)c1 (single isomer, unassigned) [49-12] : 522 (25) %
